// provenance: PubChem BioAssay

Assay: probe aLefty1 binding on compound microarray – biochemical, small-molecule microarray, 635/667 nm fluorescence, primary screen (AID 1153);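 further: score merges spot fluorescence with signal-to-noise ratio from the scanned slide images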
Conditions: higher = more signal
# key: entry, value: composite z-score
Number only, no unit.

Consider the reported composite z-score for these molecules:
smilesText	measured
CC(C)[Si](C#CCCCC#N)(O[C@H](c1ccccc1)c1cn(Cc2cccc(Cl)c2)nn1)C(C)C	0.0496
C=CC[C@]12N=C(c3ccc(OCCCO)cc3)O[C@H]1c1ccccc1N(CCS(=O)(=O)c1ccccc1)C2=O	0.204
O=C1[C@@]23C=C(Br)[C@H](C[C@@H]2COC3)[C@]12CO2	0.151

Query string: Give the reported value of composite z-score for this record: CN(C)CCCCCCNC(=O)[C@@H]1C[C@@H]2C(=O)N3CCC[C@H]3C(=O)N2[C@@H]1c1ccc(O)cc1
Result string: 0.457

====

Test: hepatitis C replication reporter changes, two-sided – Huh7 cells, luciferase reporter, HCV replication inhibitor project, primary screen (AID 1109);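 further: huh7 hepatoma cells harbouring a luciferase neomycin HCV replicon reporter; luciferase luminescence as measure of HCV replicon replication; test concentration not given here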
Conditions: Huh7 HCV replicon luciferase reporter, 48 h; higher = more signal
Use -0.3 as the dividing line for z-score, with the line itself on the criterion met side and lower values as criterion not met.

Past entries and their recorded results:
compound	labelValue
C#CCN1[C@@H](Cc2ccc(O)cc2)C(=O)O[C@H](Cc2ccccc2)[C@@H]1/C=C/C1CC1	criterion not met
C#CCN1[C@H](/C=C/C2CC2)[C@H](Cc2ccccc2)OC(=O)[C@@H]1Cc1ccccc1	criterion not met
NCCCCCNC(=O)[C@H]1C[C@H]2C(=O)N3CCC[C@H]3C(=O)N2[C@H]1c1ccc(O)cc1	criterion met

Query string: Hi, just wondering whether COCC(=C=CC[C@H](O)c1ccccc1OCCO)CCO shows z-score of -0.3 or higher.
Result string: criterion met

====

Molecular target: Epidermal growth factor receptor (Homo sapiens)
Experiment: compounds binding epidermal growth factor receptor – biochemical, small-molecule microarray, 635 nm fluorescence, primary screen (AID 1104);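 further: score merges 667 nm emission intensity with spot signal to noise over triplicate slides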
Conditions: EGFR binding, higher = more signal
assayMetric: composite z-score
Number only, no unit.

Consider the reported composite z-score for these compounds:
compound	composite z-score
O=C1[C@@]23C=C(Br)[C@H](C[C@@H]2COC3)[C@]12CO2	-1.24
C#CCN1[C@H](/C=C/C2CC2)[C@H](Cc2ccccc2)OC(=O)[C@@H]1Cc1ccccc1	0.323
O=C(CS)NCCCCCNC(=O)[C@H]1C[C@H]2C(=O)NCC(=O)N2[C@H]1c1cccc(OCCO)c1	-0.538
[N-]=[N+]=Nc1ccccc1C[C@]1(C(=O)NCC(O)CO)N=C(c2ccc(OCCCO)cc2)O[C@H]1c1ccccc1 (stereo partly drawn)	-0.704
CCOc1cc(C(O)C2C=CC3C(=O)N(c4ccccc4)C(=O)C3N2Nc2ccc(C(C)C)cc2)ccc1O (stereo not drawn)	0.147
CCCCN1CC=CC23O[C@@H]4C=CCCOC(=O)C4[C@H]2C(=O)N(CCCCCO)[C@@H]3C1=O (stereo partly drawn)	-0.95
C=CC[C@@]1(C(=O)N2CCCCC2)N=C(c2ccc(OCCCO)cc2)O[C@@H]1c1ccccc1CN=[N+]=[N-]	0.17
CN(C)CCCCNC(=O)[C@@H]1C[C@@H]2C(=O)N[C@@H](CCCCN)C(=O)N2[C@@H]1c1ccc(O)cc1	0.606

Query string: Give the reported value of composite z-score for this record: COC(=O)[C@@]1(Cc2ccc(F)cc2)[C@H]2c3cc(C(=O)N(C)C)n(Cc4ccc(C)o4)c3C[C@H]2CN1C(=O)c1ccccc1
Result string: -1.87

Query string: Give the reported value of composite z-score for this record: O=C1O[C@H](c2ccccc2)[C@H](c2ccccc2)N2[C@H]1[C@@H](C(=O)NC[C@H](O)c1ccccc1)[C@]1(C(=O)Nc3ccc(C#CC4=CCCCC4)cc31)[C@H]2c1ccccc1OCCO
Result string: 0.208

Query string: Give the reported value of composite z-score for this record: CC#CC(=O)Oc1ccc(Br)cc1C=CC(=O)OCC
Result string: -0.257

Query string: Give the reported value of composite z-score for this record: CCCC=C(CCC)[C@@H](NS(=O)(=O)c1ccc(Cl)cc1)c1ccc(C(=O)OC)cc1
Result string: 0.228

====

Assay: JC-1 mitochondrial signal, unstimulated MM1S myeloma – cell-based, JC-1 fluorescence, 24 h, 100 nL compound, profiling panel (AID 1170); further: test concentration not given here
Conditions: MM1S mitochondrial potential, higher = more signal
Lab note: class by z-score, see lo: < -1; med: ≥ -1 and < -0.2; hi: ≥ -0.2

compound	labelValue
COC(=O)C(CC#Cc1ccc2c(c1)[C@]1(C(=O)N2)[C@H](c2ccc(O)cc2)N2[C@H](c3ccccc3)[C@H](c3ccccc3)OC(=O)[C@H]2[C@@H]1C(=O)N1CCN(c2ncccn2)CC1)C(=O)OC	lo
CC(C)(C)OC(=O)CC[C@]1(C(N)=O)N=C(c2ccc(OCCCO)cc2)O[C@H]1c1ccccc1	hi
C=CCN1C(=O)[C@]2(Cc3ccccc3)N=C(c3ccc(OCCCO)cc3)O[C@@H]2c2ccccc21	lo
CO[C@H]1O[C@H](CO)[C@@H](OC(=O)Nc2ccccc2)[C@@H]2OC(=O)[C@@H](Cc3ccc4ccccc4c3)C/C=C/C[C@H](Cc3ccc4ccccc4c3)C(=O)O[C@@H]12	hi
CC(=O)n1cc(C(O)C2C=CC3C(=O)NC(=O)C3N2Nc2ccccn2)c2ccccc21 (stereo unspecified)	hi

Query string: Please indicate the class for CCC(CC)C(O)C1C=CC2C(=O)N(c3ccccc3)C(=O)C2N1Nc1ccccc1 (stereo unspecified) based on its z-score.
Result string: med

Query string: Please indicate the class for COC(=O)[C@]1(Cc2ccccc2)N=C(c2ccc(OCCCO)cc2)O[C@@H]1c1ccccc1N=[N+]=[N-] based on its z-score.
Result string: lo

Query string: Please indicate the class for N#Cc1ccc(C(O)C2C=CC3C(=O)N(c4ccccc4)C(=O)C3N2Nc2ccccc2F)cc1 (stereo unspecified) based on its z-score.
Result string: hi

Query string: Please indicate the class for C[C@H]1C2[C@H](Cc3ccccc3)NC(=O)[C@]23C(=O)NCC(=O)N2CCC[C@H]2C(=O)NC/C=C/CCC/C=C/C3[C@@H]2O[C@]12C (stereo partly specified) based on its z-score.
Result string: hi

Query string: Please indicate the class for Cc1ccc(S[C@]2(C(=O)O)CC(=O)N(C(C)C)[C@@H]2c2ccc(CO)cc2)cc1 based on its z-score.
Result string: med

Query string: Please indicate the class for CC(C)NC(=O)[C@@H]1c2ccccc2C(=O)N(C(C)C)[C@H]1c1ccc(CO)cc1 based on its z-score.
Result string: med

Query string: Please indicate the class for COCCCNC(=O)[C@@H]1c2ccccc2C(=O)N(Cc2ccccc2OC)[C@H]1c1ccc(CO)cc1 based on its z-score.
Result string: med

Query string: Please indicate the class for CCOc1cc(C(O)C2C=CC3C(=O)N(c4ccccc4)C(=O)C3N2Nc2ccc(C(C)C)cc2)ccc1O (stereo unspecified) based on its z-score.
Result string: hi

Query string: Please indicate the class for O=C1C2C=CC(C(O)C=Cc3ccc([N+](=O)[O-])cc3)N(Nc3ccccc3F)C2C(=O)N1c1ccccc1 (stereo unspecified) based on its z-score.
Result string: lo

Query string: Please indicate the class for O=C1C2C=CC(C(O)c3ccc4c(c3)OCO4)N(Nc3ccc([N+](=O)[O-])cc3)C2C(=O)N1c1ccccc1 (stereo unspecified) based on its z-score.
Result string: med

====

# key: entry, value: z-score
Test: viability profiling in MM1S myeloma cells – cell-based, resazurin fluorescence, basal, 24 h, PK04 Diversity Set, profiling panel (AID 1174);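 further: MM1S multiple myeloma cell line; test concentration not given here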
Details: higher = more signal, called active from +8 up or from −8 down
Number only, no unit.

Query string: Give the reported value of z-score for this record: CCCCN1CC=CC23O[C@@H]4C=CCOC(=O)[C@@H]4[C@H]2C(=O)N(CCCCCCO)[C@@H]3C1=O (stereo partly drawn)
Result string: 0.0626

Query string: Give the reported value of z-score for this record: C=C(CCCC)/C(=C/C[C@@H](OC(C)=O)c1ccccc1OCCO)c1cc(C(=O)OC)ccc1OC
Result string: -0.909

Query string: Give the reported value of z-score for this record: Cc1c(NC(=O)/C(C#N)=C/c2cccc([N+](=O)[O-])c2)c(=O)n(-c2ccccc2)n1C
Result string: -1.34

Query string: Give the reported value of z-score for this record: CCN(CC)c1ccc(N2CC=CC34O[C@@H]5C=CCOC(=O)[C@@H]5[C@H]3C(=O)N(CCCCCCO)[C@@H]4C2=O)cc1 (stereo partly drawn)
Result string: 1.27

Query string: Give the reported value of z-score for this record: C=CC[C@]1(C(N)=O)N=C(c2ccc(OCCCO)cc2)O[C@H]1c1ccccc1
Result string: -0.0113

Query string: Give the reported value of z-score for this record: CC(=CC1CCCCC1)[C@@H](NC(=O)c1cccnc1)c1ccc(-c2ccccc2)cc1
Result string: 0.382

Query string: Give the reported value of z-score for this record: COc1ccc(C(=O)Nc2ccc(CN3C(=O)[C@]4(O[C@H](CC(=O)N5CCC[C@H]5CO)[C@@H]([Si](C)(C)c5ccc(OC)cc5)[C@@H]4C)c4ccccc43)cc2)cc1
Result string: -2.05

Query string: Give the reported value of z-score for this record: COC(=O)[C@@]1(CCC(=O)OC(C)(C)C)N=C(c2ccc(OCCCO)cc2)O[C@H]1c1ccccc1
Result string: -1.34
